System: normal monkey kidney epithelial cell line CV-1
Measurement Description: Colony formation assay, normal monkey kidney epithelial cells CV-1;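 further: colonies visualized by crystal violet staining, incubation at 37 °C, IC50 relative to untreated wells given culture medium alone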
Run Conditions: Primates, Epithelial cell, read-out: CV-1 (IC50), Table III; 24 h treatment, colony count after 7 to 10 days
// boundary case: IC50 equal to 10 µg/mL maps to n; strictly smaller maps to y

Example results:
compound=CCn1c(=Cc2oc3c4ccccc4ccc3[n+]2CC)sc(=CC=C2N(C)c3ccccc3C2(C)C)c1=O class_name=y
compound=CCN1C(=CC=c2sc(=Cc3ccc4ccccc4[n+]3CC)n(CC)c2=O)Sc2ccc3ccccc3c21 class_name=y
compound=CCOc1cc2c(cc1C)sc(C=c1sc(=CC=C3N(C)c4ccccc4C3(C)C)c(=O)n1CC)[n+]2CC class_name=y
compound=CCN1C(=CC=c2sc(=Cc3sc4ccc5ccccc5c4[n+]3CC)n(CC)c2=O)Sc2ccc3ccccc3c21 class_name=y

Task: Is it true that IC50 reported for CCN1C(=CC=c2sc(=Cc3cc[n+](CC)c4ccccc34)n(CC)c2=O)C=Cc2cc(Cl)ccc21 is less than 10 µg/mL?
Output: n

Task: Is it true that IC50 reported for CCn1c(=Cc2sc3ccccc3[n+]2CC)sc(=CC=C2N(C)c3ccccc3C2(C)C)c1=O is less than 10 µg/mL?
Output: y

Task: Is it true that IC50 reported for CCN1C(=CC=c2sc(=Cc3sc4c5ccccc5ccc4[n+]3CC)n(-c3ccccc3)c2=O)Sc2ccc3ccccc3c21 is less than 10 µg/mL?
Output: y

Task: Is it true that IC50 reported for CCN1C(=CC=c2sc(=Cc3sc4c5ccccc5ccc4[n+]3CC)n(CC)c2=O)N(CC(F)(F)C(F)F)c2cc(C(F)(F)F)ccc21 is less than 10 µg/mL?
Output: n

Task: Is it true that IC50 reported for CCn1c(=Cc2sc3cc(C)ccc3[n+]2CC)sc(=CC=C2N(C)c3ccccc3C2(C)C)c1=O is less than 10 µg/mL?
Output: y

Task: Is it true that IC50 reported for CCN1C(=CC=c2sc(=Cc3cc[n+](CC)c4ccccc34)n(CC)c2=O)C=Cc2ccccc21 is less than 10 µg/mL?
Output: n
